Test System: T1, human SPNS2 (human, UniProt Q8IVW8 1-549)
T1 construct: S1P transporter; in Cell ELISA and S1P assays on Flp-in 293 cells that also express human SphK1; also called Spinster homolog 2; native type
T1 sequence: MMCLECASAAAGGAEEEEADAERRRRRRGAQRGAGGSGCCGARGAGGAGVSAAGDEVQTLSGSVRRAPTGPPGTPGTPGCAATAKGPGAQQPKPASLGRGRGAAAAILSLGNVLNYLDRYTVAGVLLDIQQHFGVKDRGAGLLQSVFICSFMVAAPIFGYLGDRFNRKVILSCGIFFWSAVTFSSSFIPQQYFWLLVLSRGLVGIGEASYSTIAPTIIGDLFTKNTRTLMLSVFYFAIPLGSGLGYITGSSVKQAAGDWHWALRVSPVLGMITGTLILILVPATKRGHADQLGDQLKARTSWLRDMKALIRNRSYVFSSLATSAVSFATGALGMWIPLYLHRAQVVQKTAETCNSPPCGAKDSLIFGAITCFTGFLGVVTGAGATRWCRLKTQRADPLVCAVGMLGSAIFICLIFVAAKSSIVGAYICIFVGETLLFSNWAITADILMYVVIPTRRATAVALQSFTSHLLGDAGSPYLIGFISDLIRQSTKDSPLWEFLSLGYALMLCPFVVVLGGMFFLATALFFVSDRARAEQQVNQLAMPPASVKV
Test Name: Cell ELISA
Parameter Measured: Emax (absorbance)
Answers are plain numbers, in absorbance.

>  <Binder>
49-0703G (antibody, IgG2b, V domains shown) VH: EVQLVESGGGLVQPGRSMKLSCAASGFTFSNHYMAWVRQAPTKGLEWVASISTGGGNTYYRDSVKGRFTISRDNAKSTLYLQMDSLRSEDTATYYCARQDYSNYMGGFAYWGQGTLVTVSS VL: QFVLTQPNSVSTNLGSTVKLSCKRSTGNIGNNYVNWYQQYEGRSPTTMIYRDDERPDGVPDRFSGSIDRSSNSALLTINNVQTEDEADYFCQSFSNGMFIFAGGTQLTVL

>  <Parameter Measured>
Emax

>  <Uom>
absorbance

>  <Value Reported>
1.77

$$$$
>  <Binder>
33-0503E (antibody, IgG2b, V domains shown) VH: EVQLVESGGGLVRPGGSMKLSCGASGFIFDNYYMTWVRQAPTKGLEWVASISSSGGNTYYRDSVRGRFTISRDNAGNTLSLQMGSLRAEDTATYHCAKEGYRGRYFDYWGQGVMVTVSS VL: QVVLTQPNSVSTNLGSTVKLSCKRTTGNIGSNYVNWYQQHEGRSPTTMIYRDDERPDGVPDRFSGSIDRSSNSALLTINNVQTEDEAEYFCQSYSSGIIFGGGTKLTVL

>  <Parameter Measured>
Emax

>  <Uom>
absorbance

>  <Value Reported>
2.03

$$$$

Let's switch to this binder now.
query: Give the measured Emax of 64-0807A (antibody, IgG2b, V domains shown) VH: EVQVVESGGGLVQPGRSMKLSCAALGFTFRDYYMAWVRQTPTKGLEWVAAISTGGGNTYYRDSVKGRFTISRDNAKSTLYLQMDSLRSDDTATYYCARNPYGNYFDYWGQGVMVTVSS VL: QFVLSQPNSVSTNLGSTVKLSCKRSTGNIGSNYVHWYQRHEGRSPTTLIYRDDKRPNGVPDRFSGSIDRSSNSALLTINNVQTEDEADYFCQSYSGGMYLFGGGTKLTVL .
result: 1.83
